Entries annotated with measured Kd
Biological target: T1, human UHRF1 PHD finger, residues 299–366 (human, UniProt Q96T88 299-366)
T1 construct: UHRF1 (ubiquitin-like PHD and RING finger domain-containing protein 1), human, PHD finger, residues 299-366; 15N- or 13C,15N-labelled for NMR; also called hPHD; hUHRF1 PHD finger; source: E. coli, expressed as a GST-fusion protein, purified (glutathione Sepharose 4B, HiTrap Q, Superdex 75)
T1 sequence (looked up): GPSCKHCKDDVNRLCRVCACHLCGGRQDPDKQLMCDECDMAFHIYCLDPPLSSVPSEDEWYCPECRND
Test: ITC; Microcal PEAQ-ITC, 293 K, 10 mM HEPES pH 7.5, 150 mM NaCl, 0.25 mM TCEP; one-site model; at least three independent titrations
Details: both partners purified
Answer in µM, number only, no unit symbol.

Would you please look over these solved cases?
Measured Kd, SRRGVRTLLSVQPEKMPRLRYMLLGGVRTHERRPTNKE (domain or fragment, human, UniProt Q6W0C5 81-118, looked up, source: E. coli BL21 (DE3), His-Ub fusion, purified by the same protocol as the wild type) [hDPPA3_(81-118) R93P/A97P] : 9.39

Measured Kd, SRRGVRALLSVQREKMARLRYMLLGGVRTHERRPTNKE (domain or fragment, human, UniProt Q6W0C5 81-118, looked up, source: E. coli BL21 (DE3), His-Ub fusion, purified by the same protocol as the wild type) [hDPPA3_(81-118) T87A] : 16.5

Measured Kd, SRRGVATLLSVQREKMARLRYMLLGGVRTHERRPTNKE (domain or fragment, human, UniProt Q6W0C5 81-118, looked up, source: E. coli BL21 (DE3), His-Ub fusion, purified by the same protocol as the wild type) [hDPPA3_(81-118) R86A] : 20

# context switch: different binder, same Kd
Measured Kd, SRRGVRTLLSVQREKMARLRYMLLGGVRTHERRPTNKE (domain or fragment, Used for SAXS, NMR, CD, ITC and ubiquitination experiments; also called hDPPA3; source: E. coli BL21 (DE3), His-Ub fusion, purified (Ni Sepharose, YUH1 cleavage, HiTrap SP, Superdex 75)) [human DPPA3, residues 81–118 (recombinant)] : 0.868

These entries and their values trace back to paper PMC11187062.
